Numbers sourced from paper PMC4336329.

# Target Or System: human ether-à-go-go-related gene (hERG) potassium channel (human, UniProt Q12809);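 note: peak tail current of the secondary pulse compared with the same well before compound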
# Sequence (Q12809 whole entry, looked up): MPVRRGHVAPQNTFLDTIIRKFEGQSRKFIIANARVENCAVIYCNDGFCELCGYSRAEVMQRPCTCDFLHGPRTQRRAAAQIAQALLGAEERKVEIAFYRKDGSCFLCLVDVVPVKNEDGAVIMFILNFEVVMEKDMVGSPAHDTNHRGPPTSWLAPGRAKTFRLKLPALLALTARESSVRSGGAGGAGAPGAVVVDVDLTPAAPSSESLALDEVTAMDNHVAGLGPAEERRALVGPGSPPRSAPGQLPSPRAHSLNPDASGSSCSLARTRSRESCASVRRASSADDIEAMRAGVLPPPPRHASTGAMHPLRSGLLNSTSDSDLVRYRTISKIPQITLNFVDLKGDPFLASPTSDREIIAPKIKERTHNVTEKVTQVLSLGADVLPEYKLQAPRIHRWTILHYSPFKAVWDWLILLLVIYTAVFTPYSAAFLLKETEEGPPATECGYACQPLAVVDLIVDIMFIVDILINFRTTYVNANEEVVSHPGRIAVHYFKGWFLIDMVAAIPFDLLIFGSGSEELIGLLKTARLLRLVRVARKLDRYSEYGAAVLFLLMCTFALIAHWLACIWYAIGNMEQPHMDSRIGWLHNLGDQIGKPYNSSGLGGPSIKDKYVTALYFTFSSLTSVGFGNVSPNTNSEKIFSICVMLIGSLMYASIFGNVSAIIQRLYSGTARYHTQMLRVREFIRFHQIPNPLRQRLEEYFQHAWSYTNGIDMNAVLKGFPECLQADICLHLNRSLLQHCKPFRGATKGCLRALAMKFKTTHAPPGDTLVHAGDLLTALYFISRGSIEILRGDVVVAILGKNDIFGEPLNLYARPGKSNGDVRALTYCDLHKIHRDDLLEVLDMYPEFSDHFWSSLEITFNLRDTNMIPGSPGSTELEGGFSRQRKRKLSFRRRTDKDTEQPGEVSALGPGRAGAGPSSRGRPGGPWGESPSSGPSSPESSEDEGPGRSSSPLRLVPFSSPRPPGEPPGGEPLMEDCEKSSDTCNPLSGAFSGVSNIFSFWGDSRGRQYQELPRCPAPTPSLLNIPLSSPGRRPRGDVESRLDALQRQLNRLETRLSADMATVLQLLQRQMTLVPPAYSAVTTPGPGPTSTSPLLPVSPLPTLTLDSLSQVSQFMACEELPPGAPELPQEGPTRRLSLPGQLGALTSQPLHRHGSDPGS
# Method: primary screen, population patch clamp on CHO cells stably expressing hERG; higher = less effect of the substance
About 14,000 (4.5%) of roughly 310,000 compounds showed an effect of 50% or more. The effect is printed as a negative number. The sample holds strong results, similar compounds and a random draw of the others, so the mix is not that of the screen.
Each entry below carries its reported hERG current change (%, negative = inhibition) at 10uM.
The figure you give is taken to be in %; do not add the unit.

Reference set, count: 6
In [3]: df
Out[3]:
                                   compound  result_units    val
0  O=C(c1ccc(F)cc1)C1CCN(C(=O)NCc2ccccc2)CC1             %  -6.67
1  CCNc1nc(N2CCOCC2)nc(N(c2ccccc2)c2ccccc2)n1             %  -12.9
2  O=C(CN1CCC(n2cnc3cc(F)ccc32)CC1)Nc1ccccc1Br             %  -87.8
3  Cc1ccc(Cl)cc1NS(=O)(=O)c1ccc2oc(=O)ccc2c1             %  -25.7
4  CCOc1ccc2nc(NC(=O)CN3CCC(n4nnc5cc(F)ccc54)CC3)sc2c1             %  -40.1
5        COc1ccc(CNC(=O)C(=O)NCc2cccnc2)cc1             %  -6.16

Prompt: What does the data say about its hERG current change (%, negative = inhibition) at 10uM? Entry: O=C(c1ccc(Cl)cc1)C1CCCN(Cc2cnn(-c3ccccc3)c2)C1 (centres unmarked)
Completion: -74.6

Prompt: What does the data say about its hERG current change (%, negative = inhibition) at 10uM? Entry: `O=C(NCc1ccccc1)N1CCC(n2cnc3cc(F)ccc32)CC1`
Completion: -64.3

Prompt: What does the data say about its hERG current change (%, negative = inhibition) at 10uM? Entry: CCOC(=O)C(NCc1ccc2c(c1)OCO2)(NC(=O)CC)C(F)(F)F (centres unmarked)
Completion: 14.3

Prompt: What does the data say about its hERG current change (%, negative = inhibition) at 10uM? Entry: `CC(C)Nc1nnc(SCC(=O)/C=C2\N(C)c3ccccc3C2(C)C)s1`
Completion: -65.1

Prompt: What does the data say about its hERG current change (%, negative = inhibition) at 10uM? Entry: O=C(C1CCCN(Cc2ccc(Cl)cc2)C1)N1CCCCC1.O=C(O)C(=O)O (centres unmarked)
Completion: -14.9

Prompt: What does the data say about its hERG current change (%, negative = inhibition) at 10uM? Entry: `O=C(NCc1cccnc1)/C(=C/c1ccc(Cl)cc1)NC(=O)c1ccccc1`
Completion: -68.5
